Biological target: Calcium and integrin-binding protein 1 (Homo sapiens)
Test: Primary qHTS for Identification of Calcium Integrin Binding Protein 1 (CIB1) Competitor (AID 1508620);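 further: GST tagged CIB1 binding a fluorescein labelled alphaIIb integrin peptide tracer; top concentration of the series differs between compounds; on the % scale 0 is the no-effect control and ±100 the full control effect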
Conditions: CIB1-GST / FITC-alphaIIb peptide fluorescence polarization; series mostly up to 57.7 µM
Inconclusive results are not listed. Active and inactive are the calls of the source. The call rests on the fitted dose curve; in most records, active means well fitted inhibition curve with a large enough effect; inconclusive means small, poorly fitted or top-dose-only effect; inactive means flat fitted curve, though single readings scatter.

| compound | activity change, negative = inhibition |
| --- | --- |
| CCC(C)/C=C(C)/C=C/C1=CC2=C(Cl)C(=O)C(C)(OC(C)=O)C(=O)C2=CN1C(CC(=O)O)C(=O)O (stereo not given) | inactive |
| Cc1nc(-c2cccnc2)sc1C(=O)Nc1ccccc1-c1cn2c(CN3CCOCC3)csc2n1 | inactive |
| CC(=O)OC1C(CO)OC(O[C@H]2[C@H](OC(=O)[C@]34CCC(C)(C)C[C@H]3C3=CCC5[C@@]6(C)CC[C@H](O[C@@H]7O[C@H](C(=O)O)[C@@H](O)[C@H](O[C@@H]8OC[C@@H](O)[C@H](O)[C@H]8O)[C@H]7O[C@@H]7O[C@H](CO)[C@H](O)[C@H](O)[C@H]7O)[C@@](C)(C=O)C6CC[C@@]5(C)[C@]3(C)C[C@H]4O)O[C@H](C)[C@H](OC3OC(C)C(OC4OCC(O)C(O)C4O)C(O)C3O)[C@@H]2O)C(O)C1O (stereo not given in full) | 4.08% [at 12.4 µM] (inactive) |
| CCc1cccc2c3c([nH]c12)[C@@](CC)(CC(=O)O)OCC3 | inactive |
| OC[C@@]1(O)CO[C@H](OC[C@H]2O[C@@H](OC(CCCCc3ccc(O)cc3)CCc3ccc(O)cc3)[C@H](O)[C@@H](O)[C@@H]2O)[C@@H]1O (stereo not given in full) | inactive |
